Test system: GST-mGluR5 or GST-Shank3 (residues 1143-1408)
assay: GST pull-down binding of Homer EVH1 point mutants
Set-up: key: wild-type (+); (−) indicates substantially reduced binding relative to wild-type (+)
conditions: GST pull-down of myc-tagged mutants from HEK293 lysates, relative to wild-type
measuredParameter: Binding

F74A: point mutant of the Homer EVH1 domain (protein, left off: small tags and cut ends, point mutant of the Homer EVH1 domain) MGEQPIFSTRAHVFQIDPNTKKNWVPTSKHAVTVSYFYDSTRNVYRIISLDGSKAIINSTITPNMTFTKTSQKAGQWADSRANTVYGLGFSSEHHLSKFAEKFQEFKEAARLAKEKSQEK :: +
V34M: point mutant of the Homer EVH1 domain (protein, left off: small tags and cut ends, point mutant of the Homer EVH1 domain) MGEQPIFSTRAHVFQIDPNTKKNWVPTSKHAVTMSYFYDSTRNVYRIISLDGSKAIINSTITPNMTFTKTSQKFGQWADSRANTVYGLGFSSEHHLSKFAEKFQEFKEAARLAKEKSQEK :: +
R46C: point mutant of the Homer EVH1 domain (protein, left off: small tags and cut ends, point mutant of the Homer EVH1 domain) MGEQPIFSTRAHVFQIDPNTKKNWVPTSKHAVTVSYFYDSTRNVYCIISLDGSKAIINSTITPNMTFTKTSQKFGQWADSRANTVYGLGFSSEHHLSKFAEKFQEFKEAARLAKEKSQEK :: +
F74L: point mutant of the Homer EVH1 domain (protein, left off: small tags and cut ends, point mutant of the Homer EVH1 domain) MGEQPIFSTRAHVFQIDPNTKKNWVPTSKHAVTVSYFYDSTRNVYRIISLDGSKAIINSTITPNMTFTKTSQKLGQWADSRANTVYGLGFSSEHHLSKFAEKFQEFKEAARLAKEKSQEK :: +
E93K: point mutant of the Homer EVH1 domain (protein, left off: small tags and cut ends, point mutant of the Homer EVH1 domain) MGEQPIFSTRAHVFQIDPNTKKNWVPTSKHAVTVSYFYDSTRNVYRIISLDGSKAIINSTITPNMTFTKTSQKFGQWADSRANTVYGLGFSSKHHLSKFAEKFQEFKEAARLAKEKSQEK :: +

Kindly consider the entry below.
# input What value of Binding has been reported for the following molecule? K69A: point mutant of the Homer EVH1 domain (protein, left off: small tags and cut ends, point mutant of the Homer EVH1 domain) MGEQPIFSTRAHVFQIDPNTKKNWVPTSKHAVTVSYFYDSTRNVYRIISLDGSKAIINSTITPNMTFTATSQKFGQWADSRANTVYGLGFSSEHHLSKFAEKFQEFKEAARLAKEKSQEK
# output +
